# Tested on: OVCAR-8
# method.summary: Cytotoxicity against human OVCAR8 cells
# Format: functional
recorded.endpoint: GI50
Answers without a unit are incomplete; give the number and then its unit.

INSERT INTO results (compound, result) VALUES
  ('CC(=O)O[C@H]1C[C@H]2[C@@](C)(CC[C@H]3C(C)(C)CCC[C@@]32CO)[C@@H]2CC=C(C(C)=O)[C@H](C=O)[C@@]12C', '263 nM'),
  ('CC(=O)C1=CC[C@H]2[C@]3(C)CC[C@H]4C(C)(C)CCC[C@]4(C(=O)O)[C@H]3CC(=O)[C@]2(C)[C@H]1C=O', '1320 nM'),
  ('CC(=O)O[C@@H]1C[C@H]2[C@]3(C)CC[C@H]4C(C)(C)CCC[C@]4(C)[C@H]3C[C@H](O)[C@]2(C)[C@@H](C=O)[C@@H]1C(C)=O [SCALARHERBACIN A]', '676 nM');

Shifting focus to the compound that follows.
Reported GI50 of CC1OC(=O)[C@H]2[C@H]1[C@@H](O)C[C@H]1[C@]3(C)CC[C@H]4C(C)(C)CCC[C@]4(C)[C@H]3C[C@@H](O)[C@]21C (some centres undefined) : 25100 nM

* * *

# Test system: HOP-92
# method.summary: Cytotoxicity against human HOP92 cells
# Format: functional
# run.parameters: read-out: Log LC50 (the source's name) (converted)
Reported CC50 values for a set of molecules
Numeric only. Scale: µM

A selection of reference data follows.
INSERT INTO assay_data (molecule, number) VALUES
  ('CC1OC(=O)[C@H]2[C@H]1[C@@H](O)C[C@H]1[C@]3(C)CC[C@H]4C(C)(C)CCC[C@]4(C)[C@H]3C[C@@H](O)[C@]21C (some centres undefined)', 93.3),
  ('CC(=O)O[C@@H]1C[C@H]2[C@]3(C)CC[C@H]4C(C)(C)CCC[C@]4(C)[C@H]3C[C@H](O)[C@]2(C)[C@@H](C=O)[C@@H]1C(C)=O', 5.5),
  ('CC(=O)C1=CC[C@H]2[C@]3(C)CC[C@H]4C(C)(C)CCC[C@]4(C(=O)O)[C@H]3CC(=O)[C@]2(C)[C@H]1C=O', 7.41);

Per the record, `CC(=O)O[C@H]1C[C@H]2[C@@](C)(CC[C@H]3C(C)(C)CCC[C@@]32CO)[C@@H]2CC=C(C(C)=O)[C@H](C=O)[C@@]12C` has CC50 of 5.5

* * *

Listed here are compounds together with their documented LC50.
# Test system: T47D
# method.summary: Cytotoxicity against human T47D cells
# Type: functional
All answers are understood in µM, so give the number only.

// known answers, use as guide
INSERT INTO measurements (compound, recorded_endpoint, number) VALUES
  ('CC(=O)O[C@H]1C[C@H]2[C@@](C)(CC[C@H]3C(C)(C)CCC[C@@]32CO)[C@@H]2CC=C(C(C)=O)[C@H](C=O)[C@@]12C', 'LC50', 8.91),
  ('CC(=O)C1=CC[C@H]2[C@]3(C)CC[C@H]4C(C)(C)CCC[C@]4(C(=O)O)[C@H]3CC(=O)[C@]2(C)[C@H]1C=O', 'LC50', 85.1);

GET /values?item= CC(=O)O[C@@H]1C[C@H]2[C@]3(C)CC[C@H]4C(C)(C)CCC[C@]4(C)[C@H]3C[C@H](O)[C@]2(C)[C@@H](C=O)[C@@H]1C(C)=O [SCALARHERBACIN A] &system= T47D returns LC50: 25.1
